All figures here come from paper PMC10786919.

System: HCT116 cells
Assay: Lactate dehydrogenase (LDH) release assay
Assay type: cell-based
Positions of bridges follow the written chain, without caps; N, C: chain ends. Non-standard residues stand in square brackets, D forms with d. Residues, ends and D or L forms follow the SMILES beside them. 2Nal = N[C@@H](Cc1ccc2ccccc2c1)C(=O)O; R8 = C=CCCCCCC[C@@](C)(N)C(=O)O; Cba = N[C@@H](CC1CCC1)C(=O)O; R5 = C=CCCC[C@@](C)(N)C(=O)O; S5 = C=CCCC[C@](C)(N)C(=O)O; Nle = CCCC[C@H](N)C(=O)O
Listing: LDH: Cytotoxicity assay % Effect of selected compounds
Express the result in % but write the number alone.

Worked cases, LDH: Cytotoxicity assay % Effect given:
[[record]]
compound = "CC(=O)N[C@H](C(=O)N[C@@H](CO)C(=O)N[C@@H](Cc1ccccc1)C(=O)N[C@]1(C)CCCC=CCCC[C@](C)(C(=O)N[C@@H](CC(C)C)C(=O)N[C@@H](CC(C)C)C(=O)N2CCC[C@H]2C(N)=O)NC(=O)[C@H](Cc2c[nH]c3ccccc23)NC(=O)[C@H](Cc2ccc(O)cc2)NC(=O)[C@H](CCC(=O)O)NC1=O)[C@@H](C)O [MP-1174] (Ac-TSF[R5]EYW[R5]LLP-NH2; staple 4-8)"
property = "LDH: Cytotoxicity assay % Effect"
readout_number = 2.374

[[record]]
compound = "CC(=O)N[C@H](C(=O)N[C@@H](CO)C(=O)N[C@@H](Cc1ccccc1)C(=O)NC(C)(C)C(=O)N[C@@H](CCC(=O)O)C(=O)N[C@@H](Cc1ccc(O)cc1)C(=O)N[C@@H](Cc1c[nH]c2ccccc12)C(=O)N[C@@H](C)C(=O)N[C@@H](CC(C)C)C(=O)N[C@@H](CC(C)C)C(=O)NC(C)(C)C(N)=O)[C@@H](C)O"
property = "LDH: Cytotoxicity assay % Effect"
readout_number = 0.7534

[[record]]
compound = "CC(=O)N[C@@H](CCCCN)C(=O)N[C@@H](CCCCN)C(=O)N[C@H](C(=O)N[C@@H](CO)C(=O)N[C@@H](Cc1ccc2ccccc2c1)C(=O)N[C@]1(C)CCCCCCC=CCCC[C@@](C)(C(=O)N[C@@H](CCC(=O)O)C(N)=O)NC(=O)[C@H](CC2CCC2)NC(=O)[C@H](CC(C)C)NC(=O)[C@H](C)NC(=O)[C@H](Cc2c[nH]c3ccccc23)NC(=O)[C@H](Cc2ccc(O)cc2)NC(=O)[C@H](CCC(=O)O)NC1=O)[C@@H](C)O [MP-158] (Ac-KKTS[2Nal][R8]EYWAL[Cba][S5]E-NH2; staple 6-13)"
property = "LDH: Cytotoxicity assay % Effect"
readout_number = 9.197

[[record]]
compound = "CC(=O)N[C@H](C(=O)N[C@@H](CO)C(=O)N[C@@H](Cc1ccccc1)C(=O)N[C@]1(C)CCCC=CCCC[C@](C)(C(=O)N[C@@H](CC(C)C)C(=O)N[C@@H](CC(C)C)C(=O)N2CCC[C@H]2C(=O)N[C@@H](CCC(N)=O)C(=O)N[C@@H](CC(N)=O)C(=O)N[C@@H](Cc2ccccc2)C(N)=O)NC(=O)[C@H](Cc2c[nH]c3ccccc23)NC(=O)[C@H](Cc2ccc(O)cc2)NC(=O)[C@H](CCC(=O)O)NC1=O)[C@@H](C)O [MP-1173] (Ac-TSF[R5]EYW[R5]LLPQNF-NH2; staple 4-8)"
property = "LDH: Cytotoxicity assay % Effect"
readout_number = 16.65


LDH: Cytotoxicity assay % Effect recorded for this compound, CC(=O)N1CCC[C@H]1C(=O)N[C@@H](CCCNC(=N)N)C(=O)N[C@@H](Cc1ccccc1)C(=O)N[C@]1(C)CCCCCCC=CCCC[C@@](C)(C(N)=O)NC(=O)[C@H](CC(C)C)NC(=O)[C@H](CCCNC(=N)N)NC(=O)[C@H](Cc2ccc(O)cc2)NC(=O)[C@H](Cc2c[nH]c3ccccc23)NC(=O)[C@H](Cc2ccc(O)cc2)NC(=O)[C@H](CCC(=O)O)NC1=O [MP-2032] (Ac-PRF[R8]EYWYRL[S5]-NH2; staple 4-11) , is -1.239

Record `CC(=O)N[C@H](C(=O)N[C@@H](CCCNC(N)=O)C(=O)N[C@@H](CC(C)C)C(=O)N[C@H](C(=O)N[C@@H](Cc1ccccc1)C(=O)N[C@]1(C)CCCCCCC=CCCC[C@@](C)(C(=O)N[C@@H](CO)C(=O)N[C@@H](C)C(=O)N[C@@H](C)C(N)=O)NC(=O)[C@H](CC2CCC2)NC(=O)[C@H](CCC(N)=O)NC(=O)[C@H](C)NC(=O)[C@H](Cc2c[nH]c3ccccc23)NC(=O)[C@H](Cc2ccc(O)cc2)NC(=O)[C@H](CCC(=O)O)NC1=O)[C@@H](C)O)C(C)C` . Reported LDH: Cytotoxicity assay % Effect: 9.923

Kindly note the recorded LDH: Cytotoxicity assay % Effect for `CCCC[C@@H]1NC(=O)[C@H](CC(C)C)NC(=O)[C@H](C)NC(=O)[C@H](Cc2c[nH]c3ccccc23)NC(=O)[C@H](Cc2ccc(O)cc2)NC(=O)[C@H](CCC(=O)O)NC(=O)[C@](C)(NC(=O)[C@H](Cc2ccccc2)NC(=O)[C@H](CO)NC(=O)[C@@H](NC(C)=O)[C@@H](C)O)CCCCCCC=CCCC[C@@](C)(C(N)=O)NC1=O` , which is 9.894

Value of LDH: Cytotoxicity assay % Effect reported for the compound `CC(=O)N[C@@H](CCCNC(=N)N)C(=O)N[C@@H](CCCNC(=N)N)C(=O)N[C@@H](CCCNC(=N)N)C(=O)NCCCCCC(=O)N[C@H](C(=O)N[C@@H](CO)C(=O)N[C@@H](Cc1ccccc1)C(=O)N[C@]1(C)CCCCCCC=CCCC[C@@](C)(C(N)=O)NC(=O)[C@H](CC(C)C)NC(=O)[C@H](CC(C)C)NC(=O)[C@H](C)NC(=O)[C@H](Cc2c[nH]c3ccccc23)NC(=O)[C@H](Cc2ccc(O)cc2)NC(=O)[C@H](CCC(=O)O)NC1=O)[C@@H](C)O` is 51.96

# LDH: Cytotoxicity assay % Effect of CC(=O)N[C@H](C(=O)N[C@@H](CO)C(=O)N[C@@H](Cc1ccccc1)C(=O)N[C@]1(C)CCCCCCC=CCCC[C@@](C)(C(N)=O)NC(=O)[C@H](CC(C)C)NC(=O)[C@H](CCCCN)NC(=O)[C@H](CC(C)C)NC(=O)[C@H](Cc2c[nH]c3ccccc23)NC(=O)[C@H](Cc2ccc(O)cc2)NC(=O)[C@H](CCC(=O)O)NC1=O)[C@@H](C)O [MP-034] (Ac-TSF[R8]EYWLKL[S5]-NH2; staple 4-11) = 3.672

Lookup result for CCCC[C@@H]1NC(=O)[C@H](CC(C)C)NC(=O)[C@H](C)NC(=O)[C@H](Cc2c[nH]c3ccccc23)NC(=O)[C@H](Cc2ccc(O)cc2)NC(=O)[C@H](CCC(=O)O)NC(=O)[C@](C)(NC(=O)[C@H](Cc2ccc3ccccc3c2)NC(=O)[C@H](CO)NC(=O)[C@@H](NC(C)=O)[C@@H](C)O)CCCCCCC=CCCC[C@@](C)(C(N)=O)NC1=O [MP-147] (Ac-TS[2Nal][R8]EYWAL[Nle][S5]-NH2; staple 4-11) ; measured LDH: Cytotoxicity assay % Effect: 20.59

---

System: Jump-In T-REx CHO-K1 BLA cells
Test: cells
Type: cell-based
Conditions: 0% FBS 4Hr; read-out: TETCHO: Counterscreen EC50
Positions of bridges follow the written chain, without caps; N, C: chain ends. Non-standard residues stand in square brackets, D forms with d. Residues, ends and D or L forms follow the SMILES beside them. dPhe(4-CF3) = N[C@H](Cc1ccc(C(F)(F)F)cc1)C(=O)O; dTrp(6-F) = N[C@H](Cc1c[nH]c2cc(F)ccc12)C(=O)O; R5 = C=CCCC[C@@](C)(N)C(=O)O
property: EC50

The following compounds have reported results that may help.
[[record]]
compound = "CC(C)C[C@@H](NC(=O)[C@@]1(C)CCCC=CCCC[C@@](C)(NC(=O)[C@@H](C)NC(=O)[C@@H](Cc2ccc(O)cc2)NC(=O)[C@@H](Cc2c[nH]c3cc(F)ccc23)NC(=O)[C@@H](C)NC(=O)[C@H](N)[C@H](C)O)C(=O)N[C@H](Cc2ccc(C(F)(F)F)cc2)C(=O)N[C@H](CCC(=O)O)C(=O)N[C@H](CCC(N)=O)C(=O)N1)C(=O)N[C@H](CO)C(N)=O [MP-795] (H-[dT][dA][dTrp(6-F)][dY][dA][R5][dPhe(4-CF3)][dE][dQ][R5][dL][dS]-NH2; staple 6-10)"
study_target = "Jump-In T-REx CHO-K1 BLA cells"
result = "> 50.4 µM"

[[record]]
compound = "CC(=O)N[C@H](C(=O)N[C@@H](CO)C(=O)N[C@@H](Cc1ccccc1)C(=O)N[C@]1(C)CCCCCCC=CCCC[C@@](C)(C(=O)N[C@@H](CCC(=O)O)C(=O)N[C@@H](CC(N)=O)C(=O)N[C@@H](Cc2ccc(O)cc2)C(N)=O)NC(=O)[C@H](CC(C)C)NC(=O)[C@H](CC(C)C)NC(=O)[C@H](C)NC(=O)[C@H](Cc2c[nH]c3ccccc23)NC(=O)[C@H](Cc2ccc(O)cc2)NC(=O)[C@H](CCC(=O)O)NC1=O)[C@@H](C)O"
study_target = "Jump-In T-REx CHO-K1 BLA cells"
result = "36.8 µM"


Next:
Per the reported Jump-In T-REx CHO-K1 BLA cells data, `CC(=O)N[C@@H](CCCNC(=N)N)C(=O)N[C@@H](CCCNC(=N)N)C(=O)N[C@@H](CCCNC(=N)N)C(=O)NCCCCCC(=O)N[C@H](C(=O)N[C@@H](CO)C(=O)N[C@@H](Cc1ccccc1)C(=O)N[C@]1(C)CCCCCCC=CCCC[C@@](C)(C(N)=O)NC(=O)[C@H](CC(C)C)NC(=O)[C@H](CC(C)C)NC(=O)[C@H](C)NC(=O)[C@H](Cc2c[nH]c3ccccc23)NC(=O)[C@H](Cc2ccc(O)cc2)NC(=O)[C@H](CCC(=O)O)NC1=O)[C@@H](C)O` has EC50 of 17.6 µM
